system.name: JAK2 (JH1domain-catalytic, Y1007F,Y1008F) kinase (Homo sapiens, UniProt O60674, Y1007F/Y1008F)
Construct: JAK2 (JH1domain-catalytic, Y1007F,Y1008F) kinase was expressed as N-terminal fusion
Sequence (O60674 849-1124 Y1007F/Y1008F limits assumed): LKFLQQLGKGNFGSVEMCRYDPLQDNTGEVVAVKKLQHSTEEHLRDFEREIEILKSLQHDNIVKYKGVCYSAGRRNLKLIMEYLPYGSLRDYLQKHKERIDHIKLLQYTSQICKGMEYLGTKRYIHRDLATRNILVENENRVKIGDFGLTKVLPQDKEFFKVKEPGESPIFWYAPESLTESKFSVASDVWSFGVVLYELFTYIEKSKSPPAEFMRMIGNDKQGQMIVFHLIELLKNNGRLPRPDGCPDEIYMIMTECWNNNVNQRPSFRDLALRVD
measurement.protocol: JAK2 JH1 Domain Binding Assay
recorded.conditions: qPCR readout
observation.type: Kd

compound: Cn1c(Nc2cc(C3CC3)cn([C@H]3CC[C@H]3O)c2=O)nc2ncc(Oc3cnn4ccccc34)c(Cl)c21 (single isomer, unassigned)
Kd: < 10 nM
--
compound: Cn1cc(C(F)(F)F)cc(Nc2nc3ncc(Oc4cnc5[nH]ncc5c4)c(Cl)c3n2C)c1=O
Kd: < 10 nM
--
compound: Cn1c(Nc2cc(C(C)(C)C)n([C@@H]3CCOC34CC4)n2)nc2ncc(Oc3cnn4ccncc34)c(Cl)c21 (single isomer, unassigned) [Example I-41-b]
Kd: < 10 nM
--
compound: [2H]C([2H])([2H])n1cc(C(F)(F)F)cc(Nc2nc3ncc(Oc4cnn5ccnc(NC)c45)c(Cl)c3n2C)c1=O
Kd: < 10 nM
--
compound: CNc1cn2ncc(Oc3cnc4nc(Nc5cc(C(F)(F)F)cn([C@@H]6CCCOC6)c5=O)n(C)c4c3Cl)c2cn1 (single isomer, unassigned)
Kd: 10 to 50 nM
--
compound: CCn1c(C(C)(C)C)ncc(Nc2nc3ncc(Oc4cnn5ccnc(NC)c45)c(Cl)c3n2C)c1=O
Kd: 50 to 1000 nM

Give the measured Kd of `CNc1cc(F)c2c(Oc3cnc4nc(Nc5cc(C(F)(F)F)cn(C)c5=O)n(C)c4c3Cl)cnn2c1` .
< 10 nM

Requested read-out: Kd. Entry: `CNc1cn2ncc(Oc3cnc4nc(Nc5cc(C(F)(F)F)cn(C)c5=O)n(C)c4c3OC)c2cn1`
10 to 50 nM

Fill blank: measured Kd of the compound `Cn1c(Nc2cc(C(C)(C)C)n([C@H]3C[C@H](O)C3)n2)nc2ncc(Oc3cnc4cnc(C5CC5)n4c3)c(Cl)c21` is ____.
10 to 50 nM

Given the entry Cn1c(Nc2cc(C(C)(C)C)n([C@H]3CCC[C@H]3O)n2)nc2ncc(Oc3cnn4ccncc34)c(Cl)c21 (single isomer, unassigned) , report its measured Kd.
10 to 50 nM

Name the reported Kd value associated with the compound `Cn1c(Nc2ccc(CN3CCCC3)c(C(F)(F)F)c2)nc2ncc(Oc3cnn4ccncc34)c(C#N)c21`
10 to 50 nM

Fill blank: measured Kd of the compound `CNc1cc(F)c2c(Oc3cnc4nc(Nc5cc(C(F)(F)F)cn(C)c5=O)n(C)c4c3C#N)cnn2c1` is ____.
< 10 nM

For the compound `Cn1c(Nc2cc(C(F)(F)F)cn([C@H]3C[C@@H](O)C3)c2=O)nc2ncc(Oc3cnn4ccc(F)cc34)c(Cl)c21` , what Kd is on record?
10 to 50 nM

// query Kd value for entry `CNc1ccc2c(Oc3cnc4nc(Nc5cc(C(F)(F)F)cn(C)c5=O)n(C)c4c3C#N)cnn2c1`
10 to 50 nM

# Kd lookup, item `COCCOc1ccc2c(Oc3cnc4nc(Nc5cc(C6CC6)nn(CCO)c5=O)n(C)c4c3Cl)cnn2c1`
< 10 nM

Which measured Kd value corresponds to `CNc1nccn2ncc(Oc3cnc4nc(Nc5cc(C(F)(F)F)cn(C6CC6)c5=O)n(C)c4c3Cl)c12` ?
< 10 nM

Endpoint output: Kd of `CNc1nccn2ncc(Oc3cnc4nc(Nc5cc(C(F)(F)F)c[nH]c5=O)n(C)c4c3Cl)c12` . Value?
< 10 nM

What value of measured Kd is listed for `CNc1nccn2ncc(Oc3cnc4nc(Nc5ccc(CN6CC[C@@H](OC)C6)c(C(F)(F)F)c5)n(C)c4c3Cl)c12` ?
10 to 50 nM

For the compound `CNc1nccn2ncc(Oc3cnc4nc(Nc5cc(C(F)(F)F)cn([C@H]6C[C@@H](O)C6)c5=O)n(C)c4c3Cl)c12` , what Kd is on record?
< 10 nM

What Kd value was documented for this compound, CN(C)C1CCN(Cc2cc(Nc3nc4ncc(Oc5cnn6ccncc56)c(Cl)c4n3C)cc(C(F)(F)F)c2)C1 (stereo in doubt) ?
< 10 nM

Name the reported Kd value associated with the compound `Cn1c(Nc2cc(CN3CC(F)C3)cc(C(F)(F)F)c2)nc2ncc(Oc3cnn4ccncc34)c(Cl)c21`
< 10 nM

Would you kindly share the measured Kd for `CN1CC[C@@H](n2nc(Nc3nc4ncc(Oc5cnn6ccnc6c5)c(Cl)c4n3C)cc2C(C)(C)C)C1` ?
50 to 1000 nM

Given `COc1c(Oc2cnn3ccccc23)cnc2nc(Nc3cc(C4CC4)cn(CCO)c3=O)n(C)c12` , state its recorded Kd.
10 to 50 nM

Look up Kd: `Cn1c(Nc2cc(C(C)(C)C)n(CC(F)F)n2)nc2ncc(Oc3cnn4ccncc34)c(Cl)c21`
< 10 nM

Entry `Cc1nc(Nc2nc3ncc(Oc4cnn5ccncc45)c(Cl)c3n2C)nc(C)c1C1CC1` : reported Kd = ?
< 10 nM

For the compound Cn1cc(C(F)(F)F)cc(Nc2nc3ncc(Oc4cnn5ccnc(O[C@@H]6CC[C@H]6O)c45)c(Cl)c3n2C)c1=O (single isomer, unassigned) , what Kd is on record?
< 10 nM
